# credit: the supplement of paper PMC10646978

# Tested on: RAW-Dual (murine macrophage reporter line)
# methodSummary: NF-kB reporter (SEAP) activity fold change vs agonist alone; higher = enhanced NF-kB activity
# experimentalConditions: modulator concentration 10 µM; agonist: LPS 0.1 ug/mL
recordedEndpoint: NF-kB reporter

Example cases with answers are listed next.
compound	targetOrTestSystem	recordedEndpoint	assayResult
Cl.O=C(O)/C=C/c1ccc(Cn2ccnc2)cc1	RAW-Dual (murine macrophage reporter line)	NF-kB reporter	1.32
Cc1[nH]nc(-c2ccc(OCc3ccccc3)c(C)c2O)c1-c1cnn(-c2ccccc2)c1	RAW-Dual (murine macrophage reporter line)	NF-kB reporter	1.1
O=C(C=Cc1cccnc1)c1cc2ccc1CCc1ccc(cc1)CC2	RAW-Dual (murine macrophage reporter line)	NF-kB reporter	0.76

// batch mode: one NF-kB reporter value per listed entry
1. O=S1(=O)CCC(NCc2ccccc2C(F)(F)F)C1 (stereo unspecified)
2. Cc1cccc(-c2cc3nc(C)c(Cl)c(O)n3n2)c1
3. CC(=O)NC(CS)C(=O)O (stereo unspecified)

Ans.
1: 1.13; 2: 1.04; 3: 0.934
